Test: qHTS RealTime-Glo MT Cell Viability Assay in HEK293 cells - 16 hour (AID 1224872); further: nearly all actives have a fitted effect of over 50% in size
Details: RealTime-Glo luminescence; series mostly up to 76.8 µM
Results filed as inconclusive are left out. Active and inactive are the calls of the source. The call rests on the fitted dose curve; in most records, active means well fitted cell-killing curve with a large enough effect in the repeat runs; inconclusive means weak or mixed curves, or effect the other way; inactive means flat fitted curve, though single readings scatter.
Output constraint: value belongs to 1 for active, 0 for inactive

[ask] Tell me the assay call for Cc1c(C)c2c(c(C)c1O)CCC(C)(COc1ccc(CC3SC(=O)NC3=O)cc1)O2 (stereo unspecified) please.
[reply] 1

[ask] Tell me the assay call for CCc1cc(SCc2sc(-c3ccc(C(F)(F)F)cc3)nc2CN2CCN(c3ccc(OC)cc3)CC2)ccc1OCC(=O)O please.
[reply] 1

[ask] Tell me the assay call for O=C1c2ccccc2Cc2ccccc21 please.
[reply] 0

[ask] Tell me the assay call for CCCCN(CCCC)C(=O)N(CCCC)CCCC please.
[reply] 0

[ask] Tell me the assay call for CC(C)c1ccc2c(c1)CC[C@H]1[C@](C)(CN)CCC[C@]21C please.
[reply] 1

[ask] Tell me the assay call for O=[N+]([O-])c1cc([N+](=O)[O-])c2ccc(S(=O)(=O)O)cc2c1O please.
[reply] 0

* * *

Target: Cytochrome P450 2C19 (Homo sapiens)
Test: Cytochrome P450 Family 2 Subfamily C Member 19 (CYP2C19) small molecule antagonists: luciferase reporter qHTS assay (AID 1671197); further: potency means the concentration at half of the fitted maximal effect; nearly all actives have a fitted effect of over 65% in size
Conditions: P450-Glo CYP2C19 enzyme, luciferin luminescence, 1 h; series mostly up to 52.9 µM
Results filed as inconclusive are left out. Activity calls are given as the source filed them. The call rests on the fitted dose curve; in most records, active means well fitted inhibition curve with a large enough effect in the repeat runs; inconclusive means weak or mixed curves; inactive means no such curve, though single readings can be large or run the other way.
attribute.measured: Potency

[ask] Recall the reported Potency of O=C(Oc1ccccc1)c1ccccc1C(=O)Oc1ccccc1 on Cytochrome P450 2C19 (Homo sapiens) and write it down.
[reply] 15.9 µM (active)

[ask] Recall the reported Potency of O=CC=C(c1ccccc1)c1ccccc1 on Cytochrome P450 2C19 (Homo sapiens) and write it down.
[reply] 18 µM (active)

[ask] Recall the reported Potency of O=[N+]([O-])c1cc(Cl)c(Cl)c(Cl)c1Cl on Cytochrome P450 2C19 (Homo sapiens) and write it down.
[reply] 39.8 µM (active)

[ask] Recall the reported Potency of CCCCCCCCOc1ccccc1C(=O)Nc1ccc(C(=O)OCC[N+](C)(CC)CC)cc1 on Cytochrome P450 2C19 (Homo sapiens) and write it down.
[reply] 3.89 µM (active)

[ask] Recall the reported Potency of CNc1ccc(O)cc1 on Cytochrome P450 2C19 (Homo sapiens) and write it down.
[reply] 15.9 µM (active)

[ask] Recall the reported Potency of OCc1c[nH]c2ccccc12 on Cytochrome P450 2C19 (Homo sapiens) and write it down.
[reply] 2.52 µM (active)

[ask] Recall the reported Potency of CCCC(c1cc(C(C)(C)C)c(O)cc1C)c1cc(C(C)(C)C)c(O)cc1C on Cytochrome P450 2C19 (Homo sapiens) and write it down.
[reply] 9.05 µM (active)

[ask] Recall the reported Potency of N/C(=N\N=C\c1ccc(Cl)cc1)N/N=C/c1ccc(Cl)cc1 on Cytochrome P450 2C19 (Homo sapiens) and write it down.
[reply] 2.19 µM (active)

[ask] Recall the reported Potency of CCCCCCCCNC(C)C(O)c1ccc(SC(C)C)cc1 (configuration not stated) on Cytochrome P450 2C19 (Homo sapiens) and write it down.
[reply] 19.5 µM (active)

[ask] Recall the reported Potency of CC(C)C(C)(C)C(C)(C)C(C)(C)S on Cytochrome P450 2C19 (Homo sapiens) and write it down.
[reply] 39.9 µM (active)

[ask] Recall the reported Potency of NNc1nc(-c2ccccc2)cs1 on Cytochrome P450 2C19 (Homo sapiens) and write it down.
[reply] 9.19 µM (active)

* * *

Assay: qHTS RealTime-Glo MT Cell Viability Assay in HepG2 cells - 8 hour (AID 1224873); further: nearly all actives have a fitted effect of over 55% in size
Conditions: RealTime-Glo luminescence; series mostly up to 76.8 µM
Results filed as inconclusive are left out. Calls of active or inactive are those of the source. Calls come from the whole dose curve; as a rule, active = well fitted cell-killing curve with a large enough effect in the repeat runs; inconclusive = weak or mixed curves; inactive = flat fitted curve, though single readings scatter.
Output constraint: value belongs to active, inactive

[ask] Tell me the assay call for COc1ccc(C(=O)/C(Br)=C\C(=O)O)cc1 please.
[reply] inactive

[ask] Tell me the assay call for CCCCN(CCCC)c1ccc(C(=O)c2ccccc2C(=O)O)c(O)c1 please.
[reply] inactive

[ask] Tell me the assay call for CNC(=O)c1ccccc1 please.
[reply] inactive

[ask] Tell me the assay call for CN(C)CCCOC1(Cc2ccccc2)CCCCCC1 please.
[reply] inactive

[ask] Tell me the assay call for CCC(Cl)C(Cl)C(Cl)CC(Cl)C(Cl)C(C)Cl (stereo not given) please.
[reply] inactive

[ask] Tell me the assay call for CCOC(=O)/C=C(C)/C=C/C=C(C)/C=C/c1c(C)cc(OC)c(C)c1C please.
[reply] inactive

[ask] Tell me the assay call for CSc1ccc(/C=C2/C(C)=C(CC(=O)O)c3cc(F)ccc32)cc1 please.
[reply] inactive

[ask] Tell me the assay call for Cc1cc2c(cc1C(F)(F)F)N(C(=O)Nc1ccc(Oc3cccnc3C)nc1)CC2 please.
[reply] inactive

[ask] Tell me the assay call for C[n+]1cc2c3c(ccc2c2ccc4cc5c(cc4c21)OCO5)OCO3 please.
[reply] active

[ask] Tell me the assay call for COc1cc(/C=C/C(=O)O[C@H]2CC[C@]34C[C@]35CC[C@]3(C)[C@@H]([C@H](C)CCC=C(C)C)CC[C@@]3(C)[C@@H]5CC[C@H]4C2(C)C)ccc1O please.
[reply] inactive

* * *

Test: qHTS RealTime-Glo MT Cell Viability Assay in HEK293 cells - 0 hour (AID 1224880); further: nearly all actives have a fitted effect of over 45% in size
Conditions: RealTime-Glo luminescence; series mostly up to 76.8 µM
Records with an inconclusive call do not appear. Calls of active or inactive are those of the source. The call rests on the fitted dose curve; in most records, active means well fitted cell-killing curve with a large enough effect in the repeat runs; inconclusive means weak or mixed curves, or effect the other way; inactive means flat fitted curve, though single readings scatter.
Output constraint: value belongs to active, inactive

[ask] Tell me the assay call for CCCCCCCCCCn1cc[n+](CCCCCCCCCC)c1C please.
[reply] inactive

[ask] Tell me the assay call for CCN(Cc1cccnc1)C(=O)c1cccc(Cl)c1[C@]1(C)C(=O)N(Cc2ccc(OC)cc2OC)c2ccc(Cl)cc21 please.
[reply] inactive

[ask] Tell me the assay call for Cc1cc(O)c(C(C)(C)C)cc1C(C)(C)C please.
[reply] inactive

[ask] Tell me the assay call for CCCCCCCCOC(=O)c1ccc(O)cc1 please.
[reply] inactive

[ask] Tell me the assay call for N=C1C=CC(=C(c2ccc(N)cc2)c2ccc(N)cc2)C=C1 please.
[reply] inactive

[ask] Tell me the assay call for Nc1ccc(N)c2ccccc12 please.
[reply] inactive

[ask] Tell me the assay call for CCCCCCCCCCCCCCCC[N+](C)(C)CCN(Cc1ccc(OC)cc1)c1ncccn1 please.
[reply] inactive

[ask] Tell me the assay call for O=C(c1ccc(F)cc1)C1CCN(CCn2c(=O)[nH]c3ccccc3c2=O)CC1 please.
[reply] inactive

[ask] Tell me the assay call for CN(C)c1ccc(C2(c3ccc(N(C)C)cc3)OC(=O)c3cc(N(C)C)ccc32)cc1 please.
[reply] inactive

[ask] Tell me the assay call for COc1cc(-c2ccc(N=C=O)c(OC)c2)ccc1N=C=O please.
[reply] inactive

[ask] Tell me the assay call for CCOC(=O)O[C@H](C)OC(=O)c1ccc2c(c1)cc(C(=O)NC1CCN(C(C)C)CC1)n2Cc1cc(-c2ccc(Cl)s2)on1 please.
[reply] inactive

[ask] Tell me the assay call for O=[N+]([O-])c1cc([N+](=O)[O-])c2ccc(S(=O)(=O)O)cc2c1O please.
[reply] inactive

[ask] Tell me the assay call for CCN(C(=O)N(CC)c1ccccc1)c1ccccc1 please.
[reply] inactive

[ask] Tell me the assay call for COc1ccc(C(=O)/C(Br)=C\C(=O)O)cc1 please.
[reply] inactive

[ask] Tell me the assay call for CCCC(c1cc(C(C)(C)C)c(O)cc1C)c1cc(C(C)(C)C)c(O)cc1C please.
[reply] inactive

[ask] Tell me the assay call for Cc1cc(O)c(Cl)c(C)c1Cl please.
[reply] inactive

[ask] Tell me the assay call for C[C@H](CCC(=O)O)[C@H]1CC[C@H]2[C@@H]3CC[C@@H]4C[C@H](O)CC[C@]4(C)[C@H]3CC[C@]12C please.
[reply] inactive

[ask] Tell me the assay call for CNc1ccc(O)cc1 please.
[reply] active

[ask] Tell me the assay call for O=c1[nH]sc2cc(Cl)ccc12 please.
[reply] inactive

[ask] Tell me the assay call for COc1cc(/C=C/C(=O)O[C@H]2CC[C@]34C[C@]35CC[C@]3(C)[C@@H]([C@H](C)CCC=C(C)C)CC[C@@]3(C)[C@@H]5CC[C@H]4C2(C)C)ccc1O please.
[reply] inactive

[ask] Tell me the assay call for C[C@H]1[C@H]2CC[C@H]3[C@@H]4CC=C5C[C@@H](N(C)C)CC[C@]5(C)[C@H]4CC[C@]23CN1C please.
[reply] inactive

* * *

Test: qHTS assay to identify small molecule agonists of the androgen receptor (AR) signaling pathway in the presence of an antagonist - cell viability counter screen (AID 1259379); further: nearly all actives have a fitted effect of over 25% in size
Settings: MDA-kb2 viability, CellTiter-Fluor, 16 h; series mostly up to 92.4 µM
Records with an inconclusive call do not appear. Active and inactive are the calls of the source. The call rests on the fitted dose curve; in most records, active means well fitted cell-killing curve with a large enough effect in the repeat runs; inconclusive means weak or mixed curves, or effect the other way; inactive means flat fitted curve, though single readings scatter.
Output constraint: value belongs to y for active, n for inactive

[ask] Tell me the assay call for CCOc1ccc2nc3cc(N)ccc3c(N)c2c1 please.
[reply] n

[ask] Tell me the assay call for CCc1oc2ccccc2c1C(=O)c1cc(Br)c(O)c(Br)c1 please.
[reply] n

[ask] Tell me the assay call for Cc1cc2c(cc1C(F)(F)F)N(C(=O)Nc1ccc(Oc3cccnc3C)nc1)CC2 please.
[reply] y

[ask] Tell me the assay call for CCCCCCOC(=O)c1ccc(O)cc1 please.
[reply] n

[ask] Tell me the assay call for CCCN(CCC)c1c([N+](=O)[O-])cc(C(F)(F)F)c(N)c1[N+](=O)[O-] please.
[reply] y

[ask] Tell me the assay call for Cc1cc(N)c(S(=O)(=O)O)cc1Cl please.
[reply] n

[ask] Tell me the assay call for CCc1cc(SCc2sc(-c3ccc(C(F)(F)F)cc3)nc2CN2CCN(c3ccc(OC)cc3)CC2)ccc1OCC(=O)O please.
[reply] y

[ask] Tell me the assay call for CC/C(=C(\c1ccc(O)cc1)c1ccc(OCCN(C)C)cc1)c1ccccc1 please.
[reply] y

[ask] Tell me the assay call for CC[C@H](c1ccc(O)cc1)[C@@H](CC)c1ccc(O)cc1 please.
[reply] n

[ask] Tell me the assay call for CC1=C(/C=C/C(C)=C/C=C/C(C)=C/C=O)C(C)(C)CCC1 please.
[reply] y

[ask] Tell me the assay call for Cc1cc(CCN2CCN(c3nsc4ccccc34)CC2)cc2c1NC(=O)CC2(C)C please.
[reply] y

[ask] Tell me the assay call for CC(=O)N1CCN(c2ccc(OC[C@H]3CO[C@](Cn4ccnc4)(c4ccc(Cl)cc4Cl)O3)cc2)CC1 please.
[reply] y

[ask] Tell me the assay call for CS(=O)(=O)CCNCc1ccc(-c2ccc3ncnc(Nc4ccc(OCc5cccc(F)c5)c(Cl)c4)c3c2)o1 please.
[reply] y

[ask] Tell me the assay call for OCCCCCCCCCCCCBr please.
[reply] n

[ask] Tell me the assay call for Cc1ccc(-n2nc(C(C)(C)C)cc2NC(=O)Nc2ccc(OCCN3CCOCC3)c3ccccc23)cc1 please.
[reply] n

[ask] Tell me the assay call for CCCCCCCC[N+](CCCCCCCC)(CCCCCCCC)CCCCCCCC please.
[reply] y

[ask] Tell me the assay call for CCCCc1oc2ccc(NS(C)(=O)=O)cc2c1C(=O)c1ccc(OCCCN(CCCC)CCCC)cc1 please.
[reply] y

[ask] Tell me the assay call for OC1(c2ccc(Cl)c(C(F)(F)F)c2)CCN(CCCC(c2ccc(F)cc2)c2ccc(F)cc2)CC1 please.
[reply] y

[ask] Tell me the assay call for NNc1nc(-c2ccc([N+](=O)[O-])cc2)cs1 please.
[reply] y

[ask] Tell me the assay call for C[C@@H](NCCCc1cccc(C(F)(F)F)c1)c1cccc2ccccc12 please.
[reply] y

[ask] Tell me the assay call for CCCCCCCCOc1ccccc1C(=O)Nc1ccc(C(=O)OCC[N+](C)(CC)CC)cc1 please.
[reply] n
